tested on: PC-3 prostate; experiment: NCI-60 one-dose screen, 48 h; conditions: 10 µM unless noted
The panel holds about 83,000 compounds, 20% with a hit somewhere; the sample as a whole holds those more often. Calls of active or inactive are those of the source. How the source made its calls: active means growth percent below 10; inactive means the rest.
Entry note: the call must match one of active, inactive

The examples below pair each entry with its known result.
{"columns": ["compound", "system_under_test", "class_assignment"],
 "data": [
  ["Clc1ccc(-c2nc3ccccc3s2)cc1Cl", "PC-3 prostate", "inactive"],
  ["N#Cc1ccc(N2Cc3ccccc3OC3=C2C(=O)c2c(O)ccc(O)c2C3=O)cc1", "PC-3 prostate", "active"]
]}

Query: // outcome(item) with item = "CCN(CC)CCOc1ccc(Cl)c(C)c1"
Response: inactive

Query: Answer briefly: the call reported for "C=CCn1cc(-c2nc3ccccc3s2)c2cc(-c3ccc4c5c(cccc35)C(=O)N(CCN3CCNCC3)C4=O)ccc21" in this assay.
Response: inactive

Query: Tell me the assay call for "Cc1ccc2nc(Cl)cc(=O)n2c1" please.
Response: inactive

###

Could you please report measured growth for the items listed next?
system: HOP-92 NSCLC; assay: NCI-60 one-dose screen, 48 h (100 = growth as untreated, 0 = no growth, -100 = all killed); conditions: 10 µM unless noted
Compounds without any hit were thinned out: in the full panel of roughly 83,000, 20% have a hit.
Numbers only, in %.

{"columns": ["compound", "growth, %"],
 "data": [
  ["O=c1[nH]c(Nc2ccc(S(=O)(=O)O)cc2)nc2nc(Nc3ccc(NC(=S)Nc4ccccc4)cc3)nc(-c3ccc(O)cc3O)c12", 102],
  ["Cc1nc2c3c(ncn2n1)Oc1c(c(=O)[nH]c2ccccc12)C3c1ccc(Cl)cc1 (centres undefined)", 74.2],
  ["COc1cc(-c2nn(-c3cccc(NC(=O)Nc4cc(C(F)(F)F)cc(C(F)(F)F)c4)c3)cc2-c2ccncc2)ccc1Cl", -50.2]
]}

Please turn your attention to the following entry.
Query: Given "N#Cc1c(-c2ccccc2)cc(-c2ccccc2)n(CC(=O)NO)c1=O" , state its recorded growth.
Response: 32

###

tested on: NCI-H226 lung; test: NCI-60 one-dose screen, 48 h; conditions: 10 µM unless noted
The panel holds about 83,000 compounds, 20% with a hit somewhere; the sample as a whole holds those more often. The source made the active and inactive calls. How the source made its calls: active means growth percent below 10; inactive means the rest.
// classify into TRUE = active, FALSE = inactive

// below: answered compounds
{"columns": ["compound", "system_under_test", "class_assignment"],
 "data": [
  ["COc1ccc(C(=O)NC(=O)Nc2cc3c(cc2F)/C(=C/c2[nH]c(C)c(CCC(=O)O)c2C)C(=O)N3)c(F)c1", "NCI-H226 lung", "FALSE"],
  ["C=C1c2nc3ccccc3n2C=C(c2ccc(Cl)cc2)N1Cc1ccccc1", "NCI-H226 lung", "FALSE"]
]}

Query: Test call for this compound, please: "CCCCCCCC[C@@H](O)CC(=O)N[C@@H](CC(N)=O)C(=O)N[C@@H](CCC(N)=O)C(=O)N[C@@H](CC(=O)c1cc(C)cc(O)c1C(=O)c1c(O)cccc1O)CC(C)C"
Response: FALSE

Query: Recorded test call requested for "COC(OC)c1ccccc1"
Response: FALSE

Query: # fetch the recorded call for "CCOc1cc2c(Cl)ncnc2c(OCC)c1OCC" here
Response: FALSE

Query: Hi team, can someone confirm the assay call for "Cc1ccc(S(=O)(=O)NCCCNc2cc(-c3cn(C(C)(C)C)nc3-c3cccc(O)c3)ccn2)cc1" ?
Response: FALSE
